- system-name: T1, recombinant biotinylated CD137 protein (Fc-fusion protein, R&D Systems 838-4B) (human, UniProt Q07011 24-186, biotinylated, sites not stated)
- T1 construct: Bought Fc fusion; also called CD137-Fc
- test-protocol: ELISA, lysate on biotinylated CD137-Fc
For each entry below, report its ELISA CD137 (RLU) value.
Answers are plain numbers, in RLU.

Worked set:
| binder | measurement-label | endpoint-value |
| --- | --- | --- |
| ISOP193FR9P1D7 (designed binder, not shown: small tags and cut ends) LPAPKNLVVSRVTEDSARLSWTAPDAAFDSFEIYYAEYFKNGEAIVLTVPGSERSYDLTGLKPGTEYLVTIYGVKGCDWSDPLSAISTT | ELISA CD137 (RLU) | 2.2e+06 |
| ISOP193HR9P1E8 (designed binder, not shown: small tags and cut ends) LPAPKNLVVSRVTEDSARLSWTAPDAAFDSFDIYYYELRLGGEAIVLTVPGSERSYDLTGLKPGTEYLVTIYGVKGGDYSPPLSAIFTT | ELISA CD137 (RLU) | 1.63e+07 |
| ISOP193ER9P1E2 (designed binder, not shown: small tags and cut ends) LPAPKNLVVSRVTEDSARLSWTAPDAAFDSFDIYYFEHPVGGEAIVLTVPGSERSYDLTGLKPGTEYLVTIYGVKGGFWSQPLSAIFTT | ELISA CD137 (RLU) | 1.57e+07 |
| ISOP193HR9P1H7 (designed binder, not shown: small tags and cut ends) LPAPKNLVVSRVTEDSARLSWTAPDAAFDSFEIYYREPHYGGEAIVLTVPGSERSYDLTGLKPGTEYWVTIYGVKVCLGSNPLSAIFTT | ELISA CD137 (RLU) | 4.6e+06 |
| ISOP193AR9P1B4 (designed binder, not shown: small tags and cut ends) LPAPKNLVVSRVTEDSARLSWRDLQYHTFDSFLIQYQESEKVGEAIVLTVPGSERSYDLTGLKPGTEYTVSIYGVGRHYTVYDSNPLSAIFTT | ELISA CD137 (RLU) | 5.74e+06 |
| ISOP193AR9P1H8 (designed binder, not shown: small tags and cut ends) LPAPKNLVVSRVTEDSARLSWTNEQITKYGFDSFLIQYQESEKVGEAIVLTVPGSERSYDLTGLKPGTEYTVSIYGVGRFYTVFDSNPLSAIFTT | ELISA CD137 (RLU) | 3.72e+06 |
| ISOP193HR9P1H10 (designed binder, not shown: small tags and cut ends) LPAPKNLVVSRVTEDSARLSWTAPDAAFDSFDIYYYELRLGGEAIVLTVPGSERSYDLTGLKPGTEYLVTIYGVKVCLGSNPLSAIFTT | ELISA CD137 (RLU) | 1.48e+07 |
| ISOP193ER9P1E1 (designed binder, not shown: small tags and cut ends) LPAPKNLVVSRVTEDSARLSWTAPDAAFDSFDIYYFEHPVGGEAIVLTVPGSERSYDLTGLKPGTEYLVTIYGVKGGSVSIPLSAIFTT | ELISA CD137 (RLU) | 1.5e+07 |

Input: Specify measured ELISA CD137 (RLU) for ISOP193HR9P1C7 (designed binder, not shown: small tags and cut ends) LPAPKNLVVSRVTEDSARLSWTAPDAAFDSFEIYYLELDSDGEAIVLTVPGSERSYDLTGLKPGTEYIVTIYGVKVCTGSRPLSAIFTT .
Output: 3.44e+06

The reported numbers originate from patent US20220259289A1.
